assay: probe aDKK1 binding to arrayed compounds – biochemical, biotinylated probe, 635/667 nm fluorescence, primary screen (AID 1099); conditions: small-molecule microarray, higher = more signal;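 note: score merges 667nm spot fluorescence with signal to noise across triplicate slides; reference of the scale not given here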
Reported composite z-score by item:
A bare number is all that is needed in reply.

Here is how some compounds turned out for composite z-score.
{"compound": "C[N+](C)(C)CCCC[C@@H]1NC(=O)[C@@H]2C[C@H](C(=O)NCCCCCCNC(=O)CS)[C@H](c3cccc(OCCO)c3)N2C1=O", "measured_property": "composite z-score", "reported_measurement": -0.209}
{"compound": "CN(C)CCCC[C@@H]1NC(=O)[C@@H]2C[C@H](C(=O)NCCCCCCN)[C@H](c3ccc(O)cc3)N2C1=O", "measured_property": "composite z-score", "reported_measurement": 1.46}
{"compound": "CC1CC/C=C\\[C@H]2OC34C=CCN(CCN5CCOCC5)C(=O)[C@H]3N(CCCCCO)C(=O)[C@@H]4C2C(=O)O1 (stereo partly drawn)", "measured_property": "composite z-score", "reported_measurement": -0.605}
{"compound": "NC(=O)[C@@]1(CCS(=O)(=O)c2ccccc2)N=C(c2ccc(OCCCO)cc2)O[C@H]1c1ccccc1", "measured_property": "composite z-score", "reported_measurement": 0.518}
{"compound": "COCCOC(=O)N1C(=O)[C@@]2(c3ccccc31)[C@H](c1ccc(O)cc1)N1[C@H](c3ccccc3)[C@H](c3ccccc3)OC(=O)[C@H]1[C@@H]2C(N)=O", "measured_property": "composite z-score", "reported_measurement": -0.374}

Data request: Consider the compound Cc1ccc(C(C)CC(O)C2C=CC3C(=O)NC(=O)C3N2Nc2ccccn2)o1 (stereo not drawn) and give its measured composite z-score.
Data returned: 0.182

Data request: Would you kindly repeat that for C/C=C/[C@H](CCn1cc([C@H](O)c2ccccc2)nn1)[Si](C)(C)c1ccc(OC)cc1 ?
Data returned: -0.49

Data request: Would you kindly repeat that for CCCC[C@@H]1C[C@H]1[C@@H](NC(=O)c1ccccc1)c1ccccc1 ?
Data returned: 0.599
